- Target desc: Zap70 (Homo sapiens)
- Assay summary: Zap70 kinase assay (ELISA or Alphascreen)
- Assay type: biochemical
- Condition details: read-out: Zap70 inhibition of enzyme activity
inhibition at 10 µM reference

Reference set (4 entries):
O=C(NCc1cccc(F)c1)c1cncc(-c2ccc(O)cc2)c1 = < 50%
Cc1ccccc1NC(=O)c1cncc(-c2cccnc2)c1 = < 50%
O=C(NCc1ccc(Cl)c(Cl)c1)c1cncc(-c2ccc3c(c2)OCO3)c1 = < 50%
COc1cc(-c2cncc(C(=O)Nc3ccc(N4CCOCC4)cc3)c2)c(Cl)c(OC)c1OC = < 50%

Task item: For the compound COc1cc(CNC(=O)c2cncc(-c3cc(OC)c(OC)c(OC)c3Cl)c2)cc(OC)c1 , what inhibition at 10 µM is on record?
Reply: ≥ 50%

Task item: # input compound: COc1ccc(NC(=O)c2cncc(-c3ccc(O)cc3)c2)c(OC)c1 ; wanted: its inhibition at 10 µM
Reply: < 50%

###

Recorded inhibition at 10 µM, one value per entry.
- Target desc: human JAK2 (Homo sapiens, UniProt O60674)
- Construct: The kinase domain of human JAK2 was amplified from U937mRNA; His tag (from the pFastBac HTc vector) (N); made in house; host or cells: baculovirus; Sf9 for virus, High Five insect cells for production
- Sequence (O60674 849-1124 limits assumed): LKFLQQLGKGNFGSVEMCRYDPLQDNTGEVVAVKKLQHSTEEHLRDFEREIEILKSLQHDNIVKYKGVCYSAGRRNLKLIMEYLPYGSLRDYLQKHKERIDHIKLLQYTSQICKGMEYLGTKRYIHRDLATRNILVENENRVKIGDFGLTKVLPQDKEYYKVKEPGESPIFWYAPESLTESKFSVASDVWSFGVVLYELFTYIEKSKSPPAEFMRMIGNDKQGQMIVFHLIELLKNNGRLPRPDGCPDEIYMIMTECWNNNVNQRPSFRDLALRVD
- Assay summary: JAK2 kinase assay (ELISA or Alphascreen)
- Format: biochemical
- Condition details: read-out: Jak2 inhibition of enzyme activity
- Experimental: The kinase domain of human JAK2 was amplified from U937mRNA using the polymerase chain reaction with the following primers: […] JAK2 PCR products were doped into the pFastBac HTc expression vector (Gibco) via the Sal I and Not I sites. […] Kinase assays were performed in a 96 well capture-based ELISA assay or in 384 well Optiplates (Packard) using an Alphascreen Protein Tyrosine Kinase kit. […] The ELISA plates were read on a BMG Fluorostar, the Alphascreen plates were read on a Packard Fusion Alpha. […]

Some compounds with known inhibition at 10 µM results, for comparison:
COc1cc(NC(=O)c2cncc(-c3ccc(F)cc3)c2)cc(OC)c1OC = < 50%
O=C(Nc1ccccc1)c1cncc(-c2ccc3c(c2)OCO3)c1 = < 50%
Cc1ccc(C)c(NC(=O)c2cncc(-c3ccc4c(c3)OCO4)c2)c1 = < 50%
C[C@H](NC(=O)c1cncc(-c2ccc(F)cc2)c1)c1ccccc1 = < 50%
COc1cc(-c2cncc(C(=O)NCc3ccncc3)c2)c(Cl)c(OC)c1OC = < 50%

Task item: So what does the record say about inhibition at 10 µM for COc1cc(-c2cncc(C(=O)N[C@H](C)c3ccccc3)c2)c(Cl)c(OC)c1OC ?
Reply: < 50%

Task item: Need inhibition at 10 µM, item COc1cc(NC(=O)c2cncc(-c3cc(OC)c(OC)c(OC)c3Cl)c2)cc(OC)c1OC
Reply: < 50%

Task item: Recorded inhibition at 10 µM of COc1ccc(NC(=O)c2cncc(-c3cccs3)c2)c(OC)c1 , please.
Reply: < 50%

###

- Target desc: Zap70 (Homo sapiens, UniProt P43403)
- Sequence (P43403 338-600 limits assumed, species assumed): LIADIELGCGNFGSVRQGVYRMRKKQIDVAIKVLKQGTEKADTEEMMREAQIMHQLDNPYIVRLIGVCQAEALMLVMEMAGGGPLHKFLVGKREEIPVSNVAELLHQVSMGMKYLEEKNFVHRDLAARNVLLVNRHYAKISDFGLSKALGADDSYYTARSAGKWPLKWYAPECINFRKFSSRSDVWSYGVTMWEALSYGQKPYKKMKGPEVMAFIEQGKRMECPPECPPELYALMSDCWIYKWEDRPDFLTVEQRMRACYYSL
- Assay summary: Zap70 kinase assay (ELISA or Alphascreen)
- Assay type: biochemical
- Condition details: read-out: Zap70 inhibition of enzyme activity
- Experimental: Kinase assays were performed in a 96 well capture-based ELISA assay or in 384 well Optiplates (Packard) using an Alphascreen Protein Tyrosine Kinase kit. […] In the ELISA assay tyrosine phosphorylation was quantitated following transfer to an avidin coated ELISA plate using peroxidase-linked anti-phosphotyrosine antibody PY20. […] The ELISA plates were read on a BMG Fluorostar, the Alphascreen plates were read on a Packard Fusion Alpha. […]
Readout kind: inhibition at 10 µM

Cc1cc(-c2cncc(C(=O)N[C@H](C)c3ccccc3)c2)cc(C)c1O = < 50%

Task item: Checklist item: inhibition at 10 µM tested on Zap70 (Homo sapiens, UniProt P43403), entry Cc1cc(-c2cncc(C(=O)NC(C)CCc3ccccc3)c2)cc(C)c1O (centres unmarked) , value?
Reply: < 50%

Task item: What reported inhibition at 10 µM corresponds to Cc1ccc(C)c(NC(=O)c2cncc(-c3ccc4c(c3)OCO4)c2)c1 on Zap70 (Homo sapiens, UniProt P43403)?
Reply: < 50%

Task item: Param readout= inhibition at 10 µM; system= Zap70 (Homo sapiens, UniProt P43403); entry= COc1cc(-c2cncc(C(=O)Nc3ccc(F)cc3C)c2)c(Cl)c(OC)c1OC ; returns value.
Reply: < 50%

Task item: Identify the measured inhibition at 10 µM of COc1cccc(-c2cncc(C(=O)N[C@@H](C)c3cccc(OC)c3)c2)c1 for Zap70 (Homo sapiens, UniProt P43403).
Reply: ≥ 50%
